Test system: HCT-15
Counter-ions that a name gives are not always drawn.
Below, each of the molecules is paired with its reported GI50 value.
Give just the number in µM; leave the unit off.

# annotated cases, reported GI50 shown
> print(dat)
                                   molecule  assayed.target  experimental.endpoint  endpoint.value
1   COc1cc(OC)c2c(=O)cc(-c3ccccc3F)[nH]c2c1          HCT-15                   GI50            28.6
2  CCN(CC)CCO/N=C1/C=C2CCC3C(CC[C@@]4(C)C3CC[C@]4(C)O)[C@@]2(C)CC1 (stereo not given in full)          HCT-15                   GI50            2.29
3  CC(OC1CC(=O)CC2C(=O)C=CC(=O)C12)c1ccccc1 (stereo not given)          HCT-15                   GI50            17.1
4  CN(C)CCOc1ccc(/C(=C(/CCCl)c2ccccc2)c2ccccc2)cc1 [TOREMIFENE CITRATE]          HCT-15                   GI50            14.7
5     COc1ccc(Nc2nc(N)c(C(=O)c3ccco3)s2)cc1          HCT-15                   GI50            6.58
6                      CSC1(SC)CCCCCCCCCCC1          HCT-15                   GI50            48.1
7  C=C(C)[C@@H]1CC[C@]2(C(=O)O)CC[C@]3(C)[C@H](CC[C@@H]4[C@@]5(C)CC(=O)C(C)(C)[C@@H]5CC[C@]43C)[C@@H]12          HCT-15                   GI50            8.67
8  CCOC(=O)C1=C(C)N(Cc2ccccc2)C(C)=C(C(=O)OCC)C1c1ccccc1O          HCT-15                   GI50            30.1

Request: Request - read-out GI50 | tested on HCT-15 | molecule O=C(/C=C/c1ccc([N+](=O)[O-])cc1)N1CCN(CCOC(c2ccc(F)cc2)c2ccc(F)cc2)CC1
Response: 19.1

Request: Request - read-out GI50 | tested on HCT-15 | molecule COc1ccc2nc(-c3ccc(O)cc3)cc(O)c2c1
Response: 1.36

Request: Request - read-out GI50 | tested on HCT-15 | molecule COc1ccc(CC2NC(=O)/C=C/CC(C(C)C3OC3c3ccccc3)OC(=O)C(CC(C)C)OC(=O)C(C)CNC2=O)cc1Cl (stereo not given)
Response: 1.06e-05

----------
Tested on: UACC-62
EXPERIMENT: NCI tumour cell line growth inhibition, 48 h
Calls of active or inactive are those of the source. No stated cut-off is given here; in the data, active = GI50 up to about 1.1 µM and inactive = higher.
EXPERIMENTAL_ENDPOINT: GI50

Request: # get_value(readout='GI50', item= CC(C)[C@@H]1NC(=O)[C@@H]2N=C(O[C@H]2C)[C@H](C(C)C)NC(=O)C2N=C1O[C@H]2C )
Response: > 100 µM (inactive)

Request: # get_value(readout='GI50', item= O=c1oc2c(Cl)cc(Cl)cc2cc1C1=CSC2=NCCN12 )
Response: 51.9 µM (inactive)

Request: # get_value(readout='GI50', item= Cn1c(=O)oc2cc(C(=S)N3CCC(Cc4ccccc4)CC3)ccc21 )
Response: > 100 µM (inactive)

Request: # get_value(readout='GI50', item= CC(SC(=S)N1CCCC1)C(=O)Nc1nnc(-c2ccc(Cl)cc2)o1 (stereo not given) )
Response: 30.5 µM (inactive)

Request: # get_value(readout='GI50', item= CC(=O)OC1COC(n2nc(N)nc2C)C(OC(C)=O)C1OC(C)=O (stereo not given) )
Response: > 100 µM (inactive)
